biological target: WDR5 21-334, P61964
MEASUREMENT_NAME: selected by phage display

>  <BINDER>
PQNRTSAYSLEHADLG [SIPA1, Q96FS4]

>  <MEASUREMENT_NAME>
selected by phage display

>  <REPORTED_RESULT>
confidence 2 (active)

$$$$
>  <BINDER>
DFTAPDVWYPGGMVSR [AR, P10275]

>  <MEASUREMENT_NAME>
selected by phage display

>  <REPORTED_RESULT>
confidence 2 (active)

$$$$
>  <BINDER>
ARTVLWNPEDLIPLPI [ZC3H4, Q9UPT8]

>  <MEASUREMENT_NAME>
selected by phage display

>  <REPORTED_RESULT>
confidence 2 (active)

$$$$
>  <BINDER>
SARSGYVIQGSSDLIA [SVEP1, Q4LDE5]

>  <MEASUREMENT_NAME>
selected by phage display

>  <REPORTED_RESULT>
confidence 2 (active)

$$$$
